For each record, write down the corresponding Kd.
Subject Of Test: PDGFRB(DKIN) (PDGFR-β) (Homo sapiens, UniProt P09619)
Construct: PDGFRB(DKIN)
Assay Overview: Phage-display competitive binding assay, PDGFRB(DKIN)
Test Conditions: T7 phage displaying human PDGFR-β, DKIN construct; read-out: Binding Assay: PDGFRB(DKIN)

Study these solved cases before continuing.
>>> measured_value("C[S+]([O-])c1ccc(NC(=O)Nc2cc(C(C)(C)C)on2)cc1 (stereo not shown) [Compound A46]")
"100 to 1000 nM"
>>> measured_value("CC(C)(C)c1cc(NC(=O)Nc2ccc(NC(=O)c3cccc4c3OCCO4)cc2)no1 [Compound N111]")
"100 to 1000 nM"
>>> measured_value("COc1ccc(N(C)C(=O)N(C)c2cc(C(C)(C)C)no2)cc1 [Compound J8]")
"> 10000 nM"

Working through the 5 molecules below one at a time, give Kd for each.
1. Cc1cc(NC(=O)Nc2ccc(OCc3ccccc3)cc2)n(-c2ccccc2)n1 [Compound H4]
2. CC(C)(C)c1cc(NC(=O)Nc2ccc(NC(=O)c3cnc4cc(C(F)(F)F)ccc4c3O)cc2)no1 [Compound N146]
3. CC(C)(C)c1cc(NC(=O)Nc2ccc(OCCN3CCOCC3)c3ccccc23)no1 [Compound K1]
4. COc1ccc(N(N)C(=O)Nc2cc(C(C)(C)C)on2)cc1 [Compound J14]
5. CC(C)(C)c1cc(NC(=O)Nc2ccc(N3C(=O)c4ccccc4C3=O)cc2)no1 [Compound A57]

[A]
1000 to 10000 nM
1000 to 10000 nM
100 to 1000 nM
> 10000 nM
< 100 nM

----------
For each record, write down the corresponding pKd.
Subject Of Test: PDGFRB(DKIN) (PDGFR-β) (Homo sapiens, UniProt P09619)
Construct: PDGFRB(DKIN)
Assay Overview: Phage-display competitive binding assay, PDGFRB(DKIN)
Test Conditions: T7 phage displaying human PDGFR-β, DKIN construct; read-out: Binding Assay: PDGFRB(DKIN)
pKd: −log10 of the molar value.

Study these solved cases before continuing.
>>> measured_value("CC(C)(C)c1cc(NC(=O)Nc2ccc(OCc3ccc(C(F)(F)F)cc3)cc2)no1")
"> 7.00"
>>> measured_value("CC(C)(C)c1cc(NC(=O)Nc2ccc(NC(=O)c3csc(-c4ccncc4)n3)cc2)no1")
"> 7.00"
>>> measured_value("CC(C)(C)c1cc(NC(=O)Nc2ccc(NC(=O)c3nnsc3Sc3ccc(C(F)(F)F)cc3)cc2)no1")
"6.00 to 7.00"

Working through the 2 compounds below one at a time, give pKd for each.
1. CC(C)(C)c1cc(NC(=O)Nc2ccc(NC(=O)CCc3ccccc3)cc2)no1
2. COC(=O)c1ccc(C(=O)Nc2ccc(NC(=O)Nc3cc(C(C)(C)C)on3)cc2)nc1 [Compound N12]

[A]
6.00 to 7.00
6.00 to 7.00
